target: T1, Soluble TSHR (22-260) protein (human, UniProt P16473 22-260); experiment: SPR (Biacore T200, 25 C), antibody captured on anti-human Fc, soluble TSHR (22-260) as analyte, 1:1 fit;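 also: antibodies captured at 0.1 ug/mL on a CM5 sensor chip bearing anti-human Fc, with HBS-EP+ running buffer at pH 7.4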
T1 construct: range 22-260
Classification field: Satisfied = koff at or over 0.0004 s⁻¹; Not satisfied = koff under 0.0004 s⁻¹.

[
  {
    "Binder": "TSHB-20 (antibody, V domains shown) VH: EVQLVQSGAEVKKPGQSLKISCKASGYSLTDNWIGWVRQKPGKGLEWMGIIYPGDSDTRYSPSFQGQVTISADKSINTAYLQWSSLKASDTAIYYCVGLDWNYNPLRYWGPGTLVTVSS VL: QSVLTQPPSVSAAPGQKVTISCSGSSSNIGSNYVSWYQQLPGTAPKLLIYDNNKRPSGIPDRFSGSKSGTSATLGITGLQTGDEADYYCGTWDSRLGIAVFGGGTQLTVL",
    "Discrete label": "Not satisfied"
  },
  {
    "Binder": "TSHB-9 (antibody, V domains shown) VH: EVQLVQSGAEVKKPGESLKISCKASGYSLTDNWTGWVRQKPGKGLEWMGIIYPGDSDTRYSPSFQGQVTISADKSISTAYLQWSSLKASDTAIYYCVGLDWNYNPLRYWGQGTLVTVSS VL: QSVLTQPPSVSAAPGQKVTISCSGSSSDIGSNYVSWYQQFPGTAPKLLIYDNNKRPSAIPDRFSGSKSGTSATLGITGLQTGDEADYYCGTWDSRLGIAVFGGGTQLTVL",
    "Discrete label": "Satisfied"
  },
  {
    "Binder": "TSHB-19 (antibody, V domains shown) VH: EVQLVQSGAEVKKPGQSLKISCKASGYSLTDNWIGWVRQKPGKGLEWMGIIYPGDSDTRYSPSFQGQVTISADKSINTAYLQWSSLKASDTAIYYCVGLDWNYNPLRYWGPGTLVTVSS VL: QSVLTQPPSVSAAPGQKVTISCSGSSSDIGSNWVSWYQQLPGTAPKLLIYDNNKRPSGIPDRFSGSKSGTSATLGITGLQTGDEADYYCGTWDSRLGIAVFGGGTQLTVL",
    "Discrete label": "Not satisfied"
  },
  {
    "Binder": "TSHB-8 (antibody, V domains shown) VH: EVQLVQSGAEVKKPGESLKISCKASGYSLTDNWIGWVRQKPGKGLEWMGIIYPGDSDTRYSPSFQGQVTISADKSISTAYLQWSSLKASDTAMYYCVGLDWNYNPLRYWGQGTLVTVSS VL: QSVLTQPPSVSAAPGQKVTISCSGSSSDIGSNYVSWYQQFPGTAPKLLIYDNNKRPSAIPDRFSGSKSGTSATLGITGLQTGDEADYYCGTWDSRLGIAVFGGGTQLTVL",
    "Discrete label": "Not satisfied"
  },
  {
    "Binder": "TSHB-6 (antibody, V domains shown) VH: EVQLVQSGAEVKKPGESLKISCKASGYSLNDNWIGWVRQKPGKGLEWMGIIYPGDSDTRYSPSFQGQVTISADKSISTAYLQWSSLKASDTAIYYCVGLDWNYNPLRYWGQGTLVTVSS VL: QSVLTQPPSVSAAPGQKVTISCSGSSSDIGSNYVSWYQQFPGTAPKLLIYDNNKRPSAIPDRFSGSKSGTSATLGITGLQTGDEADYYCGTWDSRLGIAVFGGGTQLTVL",
    "Discrete label": "Satisfied"
  }
]
